Biological target: Pyruvate kinase PKM (Homo sapiens) (UniProt P14618)
Sequence (P14618 whole entry, looked up, canonical isoform): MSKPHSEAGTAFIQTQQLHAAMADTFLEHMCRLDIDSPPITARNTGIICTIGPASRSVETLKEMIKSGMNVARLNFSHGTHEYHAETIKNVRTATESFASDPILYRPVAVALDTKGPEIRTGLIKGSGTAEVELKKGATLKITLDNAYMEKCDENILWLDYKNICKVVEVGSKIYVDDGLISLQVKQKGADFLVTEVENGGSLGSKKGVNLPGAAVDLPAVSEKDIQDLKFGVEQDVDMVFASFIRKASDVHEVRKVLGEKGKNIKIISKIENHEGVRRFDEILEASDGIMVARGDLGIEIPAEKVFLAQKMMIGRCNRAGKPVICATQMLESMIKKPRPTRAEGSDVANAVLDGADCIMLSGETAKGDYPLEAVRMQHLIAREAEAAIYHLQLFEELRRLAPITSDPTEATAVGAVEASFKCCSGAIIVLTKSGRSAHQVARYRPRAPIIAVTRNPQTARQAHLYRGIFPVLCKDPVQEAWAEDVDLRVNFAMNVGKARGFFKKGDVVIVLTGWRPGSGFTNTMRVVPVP
Assay: Confirmation Concentration-Response Assay for Activators of Human Muscle isoform 2 Pyruvate Kinase
Settings: purified hPK-M2, Kinase-Glo ATP luminescence, 1 h; series mostly up to 57.5 µM
Description: NIH Chemical Genomics Center [NCGC] Matthew G. Vander Heiden, M.D., Ph.D. [Harvard Medical School, 77 Avenue Louis Pasteur, Boston, MA 02115] […] ATP generation was detected in a coupled reaction by luciferase-mediated luminescence, an ATP-dependent process. […]
Inconclusive results are not listed. Calls of active or inactive are those of the source. Calls come from the whole dose curve; as a rule, active = well fitted activation curve with a large enough effect; inconclusive = small, poorly fitted or top-dose-only effect; inactive = no such curve, though single readings can be large or run the other way.
Outcome codes: active, inactive

Compound: Cc1ccc(NS(=O)(=O)c2ccc3c(c2)CCC(=O)N3)cc1C
Group Label: active
--
Compound: Cc1cc2c(s1)c1cnn(Cc3cccc(Cl)c3)c(=O)c1n2C
Group Label: active
--
Compound: CC(=O)Nc1cc2c(s1)c1cnn(Cc3ccccc3F)c(=O)c1n2C
Group Label: active
--
Compound: O=S(=O)(c1ccc2c(c1)OCCO2)N1CCN(S(=O)(=O)c2ccccn2)CC1
Group Label: active
--
Compound: O=S(=O)(NCCCCCNS(=O)(=O)c1c(F)cccc1F)c1ccc2c(c1)OCCO2
Group Label: active
--
Compound: Cc1cc2c(s1)c1cnn(Cc3ccc(S(C)(=O)=O)cc3)c(=O)c1n2C
Group Label: active
--
Compound: Cn1c2cc(S(C)=O)sc2c2cnn(Cc3ccccc3F)c(=O)c21 (stereo unspecified)
Group Label: active
--
Compound: O=C(/C=C/c1cccc(Cl)c1)c1nc2ccccc2[nH]1
Group Label: inactive
--
Compound: O=S(=O)(c1ccc2c(c1)OCCO2)N1CCN(S(=O)(=O)c2cc(F)c(F)cc2F)CC1
Group Label: active
--
Compound: Nc1cccc(-c2cn3cc(C(F)(F)F)cc(Cl)c3n2)c1
Group Label: inactive
--
Compound: Cc1cc2c(s1)c1cnn(Cc3ccccc3Cl)c(=O)c1n2C
Group Label: active
